Taken from patent US8258151B2.

# target: SGLT2 (Homo sapiens, UniProt P31639)
# Sequence (P31639 whole entry): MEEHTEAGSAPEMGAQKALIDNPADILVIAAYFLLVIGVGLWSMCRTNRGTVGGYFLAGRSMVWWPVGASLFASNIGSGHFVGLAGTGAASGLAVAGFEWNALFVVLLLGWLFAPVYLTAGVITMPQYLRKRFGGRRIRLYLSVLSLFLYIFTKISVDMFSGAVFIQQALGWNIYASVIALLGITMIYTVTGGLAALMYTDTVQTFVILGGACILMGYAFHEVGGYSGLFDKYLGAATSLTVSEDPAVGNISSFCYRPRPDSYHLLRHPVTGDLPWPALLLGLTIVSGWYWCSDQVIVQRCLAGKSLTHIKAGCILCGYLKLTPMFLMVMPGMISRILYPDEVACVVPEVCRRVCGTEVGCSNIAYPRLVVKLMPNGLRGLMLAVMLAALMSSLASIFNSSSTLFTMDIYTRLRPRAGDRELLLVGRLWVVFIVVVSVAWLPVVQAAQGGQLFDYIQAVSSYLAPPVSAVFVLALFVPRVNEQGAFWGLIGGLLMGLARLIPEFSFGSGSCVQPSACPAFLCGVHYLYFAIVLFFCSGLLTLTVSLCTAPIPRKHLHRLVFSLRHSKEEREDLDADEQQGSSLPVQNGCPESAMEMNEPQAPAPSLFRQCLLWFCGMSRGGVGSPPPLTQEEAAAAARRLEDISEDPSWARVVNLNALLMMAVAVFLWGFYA
# test method notes: SGLT2 activity measurement: 14C-AMG uptake in BHK cells transfected with SGLT2
# measurement conditions: AMG 2 mM, 37° C., 90 min
pIC50: −log10 of the molar value.
property label: pIC50

Check out these entries, answers already filled in.
// pIC50 value for COC(=O)c1cccc(C)c1Nc1c(-c2c(C)cc(OC)cc2OCC(N)=O)nc2ccc(F)cn12 : 5.00 to 6.00

// pIC50 value for Cc1cccc(C(C)C)c1Nc1c(-c2ccccc2OCC(N)=O)nc2ccccn12 : 5.00 to 6.00

// pIC50 value for CCOc1cc(CC)c(-c2nc3ccc(F)cn3c2Nc2c(C)cccc2C)c(OCC(N)=O)c1 : 6.00 to 8.00

Then there is this compound:
// pIC50 value for CCc1cc(OC)cc(OCC(N)=O)c1-c1nc2ccc(F)cn2c1Nc1c(C)cccc1Cl : 6.00 to 8.00
